Biological target: EPHB1 (UniProt P54762)
Sequence (P54762 whole entry, looked up): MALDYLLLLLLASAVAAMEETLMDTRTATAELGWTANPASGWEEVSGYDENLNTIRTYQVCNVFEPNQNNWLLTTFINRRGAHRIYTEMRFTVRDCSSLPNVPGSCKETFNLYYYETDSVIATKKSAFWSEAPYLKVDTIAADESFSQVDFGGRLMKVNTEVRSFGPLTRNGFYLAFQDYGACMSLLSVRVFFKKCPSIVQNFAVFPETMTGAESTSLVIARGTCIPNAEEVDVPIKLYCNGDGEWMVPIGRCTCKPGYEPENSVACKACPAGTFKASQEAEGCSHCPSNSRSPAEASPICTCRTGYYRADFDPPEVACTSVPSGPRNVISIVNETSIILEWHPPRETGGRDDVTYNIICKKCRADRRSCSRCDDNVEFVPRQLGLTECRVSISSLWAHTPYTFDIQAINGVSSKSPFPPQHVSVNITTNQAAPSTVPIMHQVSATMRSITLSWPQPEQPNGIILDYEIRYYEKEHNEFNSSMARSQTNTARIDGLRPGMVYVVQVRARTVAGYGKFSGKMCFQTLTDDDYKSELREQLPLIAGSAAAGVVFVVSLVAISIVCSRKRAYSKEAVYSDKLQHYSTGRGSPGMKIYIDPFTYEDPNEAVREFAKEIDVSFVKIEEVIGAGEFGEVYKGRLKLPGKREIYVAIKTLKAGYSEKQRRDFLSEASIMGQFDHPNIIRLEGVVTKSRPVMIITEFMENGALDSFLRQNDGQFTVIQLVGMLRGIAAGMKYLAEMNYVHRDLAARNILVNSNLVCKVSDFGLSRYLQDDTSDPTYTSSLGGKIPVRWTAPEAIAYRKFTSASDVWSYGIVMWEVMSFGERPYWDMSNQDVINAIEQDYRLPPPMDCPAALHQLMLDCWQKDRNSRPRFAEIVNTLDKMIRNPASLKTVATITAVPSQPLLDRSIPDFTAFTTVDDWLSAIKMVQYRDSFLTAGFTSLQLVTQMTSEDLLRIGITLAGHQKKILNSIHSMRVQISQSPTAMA
Assay: phosphorylation enrichment, bacterial display (enrichment ratio); higher = better substrate or ligand; peptides without Tyr show the background
Kindly return Condition met if reported phosphorylation enrichment is no lower than 0.6; return Condition not met if it is lower.

Illustrative cases are given below, each with its answer.
• GDFFRYLAEVA [YWHAG_Y133_YF] = Condition not met
• AFRHGYFDEEM [PLEC_Y2971_R2969H_YF] = Condition not met
• VHNLDYYKMTT [FGFR3_Y647_K650M] = Condition met
• EPYKVYRIVPE [IRF8_Y110] = Condition not met

Task: hey, is phosphorylation enrichment for this one >= 0.6? APQFTYAQGGQ [FLNA_Y1763_YF]
Result: Condition not met

Task: hey, is phosphorylation enrichment for this one >= 0.6? GPGGDYAAMGA [ERBB3_Y1276]
Result: Condition met

Task: hey, is phosphorylation enrichment for this one >= 0.6? VDEERYDIEAK [TNNI3_Y112]
Result: Condition not met

Task: hey, is phosphorylation enrichment for this one >= 0.6? DPHKIYEFVNS [IRF3_Y107]
Result: Condition met

Task: hey, is phosphorylation enrichment for this one >= 0.6? QLHRKYCLSPR [HJURP_Y445_E444K]
Result: Condition not met

Task: hey, is phosphorylation enrichment for this one >= 0.6? SDPIVYTLENI [EMR1_Y534_I533V]
Result: Condition not met

Task: hey, is phosphorylation enrichment for this one >= 0.6? ALSDGYWVVSN [TPP1_Y459]
Result: Condition not met

Task: hey, is phosphorylation enrichment for this one >= 0.6? VVQGLYKSMPK [KBTBD2_Y250]
Result: Condition not met

Task: hey, is phosphorylation enrichment for this one >= 0.6? ADFFDYGRGLS [KHDRBS3_Y304_H306R_YF]
Result: Condition not met

Task: hey, is phosphorylation enrichment for this one >= 0.6? ENFSEYQEISV [HEMGN_Y150_A154S]
Result: Condition met

---

Molecular target: SHP2-C SH2;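 note: peptide library displayed on the E. coli surface as eCPX fusions, selected cells deep-sequenced, score is each peptide's frequency after selection divided by its frequency in the input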
Test: SH2 binding enrichment of the phosphorylated peptide, bacterial display (enrichment ratio); higher = better substrate or ligand; peptides without Tyr show the background
Give SH2 binding enrichment for every item shown.
Answers are plain numbers.

• PVDVAYRRGYF [PLEC_Y2967] = 0.519

Below are some sequences; for each one, tell me its SH2 binding enrichment.
1. ASLEAYCKHKF [RXRA_Y403_YF]
2. RSHRSYSCQVM [IGLL1_Y192_R189H]
3. ALEQKYWALGQ [MAP1A_Y1555]
4. EESSHYSTEKE [ADAR_Y587]
5. GADDSYFTVRS [ZAP70_Y492_A495V_YF]
6. QRKRAYVEIEF [MAK16_Y282_YF]

Result:
1. 0.868
2. 0.993
3. 0.662
4. 0.646
5. 0.625
6. 2.48

Task: So what SH2 binding enrichment did STEAIYRRYSK [SH3PXD2B_Y42] get with SHP2-C SH2?
Result: 0.664

---

Target: Hck (UniProt P08631)
Sequence (P08631 whole entry, looked up): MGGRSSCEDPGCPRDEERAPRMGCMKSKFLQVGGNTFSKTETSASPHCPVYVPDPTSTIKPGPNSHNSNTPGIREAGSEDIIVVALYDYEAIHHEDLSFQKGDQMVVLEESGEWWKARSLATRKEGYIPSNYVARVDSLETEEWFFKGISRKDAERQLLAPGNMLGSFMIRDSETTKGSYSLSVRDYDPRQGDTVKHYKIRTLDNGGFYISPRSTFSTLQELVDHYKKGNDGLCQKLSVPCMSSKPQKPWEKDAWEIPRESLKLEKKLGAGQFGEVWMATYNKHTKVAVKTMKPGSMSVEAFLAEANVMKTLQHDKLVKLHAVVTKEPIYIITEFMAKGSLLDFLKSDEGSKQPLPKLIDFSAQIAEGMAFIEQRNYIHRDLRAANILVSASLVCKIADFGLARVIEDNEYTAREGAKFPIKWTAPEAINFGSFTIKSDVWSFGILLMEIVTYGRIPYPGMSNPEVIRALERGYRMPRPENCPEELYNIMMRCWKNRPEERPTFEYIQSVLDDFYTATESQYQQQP
Assay: phosphorylation enrichment, bacterial display (enrichment ratio); higher = better substrate or ligand; peptides without Tyr show the background
Give phosphorylation enrichment for every item shown.
One number for each entry.

* TSESSYYKSLN [NGEF_Y288_A286S] | 0.496
* LMVFEYMRHGN [NTRK1_Y591_D596N] | 0.597
* WVYNHYRCIIW [BRCA2_Y2624_W2626C] | 0.538
* LSDVIYVILRK [PMP22_Y153_G150D] | 0.391
* DQIDTYELSGA [DNM1_Y354_G359A] | 0.741
* QRKRAYVEIEY [MAK16_Y282] | 0.672
* PEADKYCLTFA [FGG_Y300_R301C_YF] | 1.5
* DVAKEYGHLLP [HRC_Y99_S96A] | 0.547
* PVGDAYKKKGL [NMNAT1_Y55] | 0.559
* PEFVVYKPQME [CCRL2_Y170] | 0.883

Below are some sequences; for each one, tell me its phosphorylation enrichment.
1. KPVEEYANCHL [TF_Y593]
2. KHMADYPDYKY [SOX11_Y113]
3. DTLASYLDKVR [KRT12_Y139_R135T]
4. IFRASYVPFAA [RBM47_Y541_G538R_YF]
5. GIVKAYYVHAR [AIPL1_Y267_R270H]
6. VDEVLYEDSST [MTHFS_Y197]
7. GADDSYFTVRS [ZAP70_Y492_A495V_YF]
8. DLGIQYKVLKP [CTNNA1_Y177_A179V]

Result:
1. 0.613
2. 0.401
3. 0.408
4. 0.506
5. 0.412
6. 0.646
7. 0.968
8. 0.548

Below are some sequences; for each one, tell me its phosphorylation enrichment.
1. TLSGIYQFIIA [FOXL2_Y81_YF]
2. FKELVYETVRV [FSHB_Y76]
3. NTEGGYRCICA [CRELD1_Y328]
4. EKQARYEIVVE [CDH5_Y223]

Result:
8.44
12.4
0.538
0.486

The reported numbers originate from the supplement of paper PMC10065799.
